Tested on: HCT-116
ASSAY_DETAILS: Cytotoxicity against human HCT116 cells by MTT assay
Assay type: functional, cell-based
What IC50 was measured for each of the following?

COC(=O)[C@H]1O[C@@H](O[C@H]2CC[C@]3(C)[C@H]4CC=C5[C@@H]6CC(C)(C)CC[C@]6(C(=O)O[C@@H]6O[C@H](CO)[C@@H](O)[C@H](O)[C@H]6O)CC[C@@]5(C)[C@]4(C)CC[C@H]3C2(C)C)[C@H](O)[C@@H](O[C@@H]2O[C@H](CO)[C@@H](O)[C@H](O)[C@H]2O)[C@@H]1O; > 100 µM

Next item in the queue.
# input Consider the compound shown here: COC(=O)[C@H]1O[C@@H](O[C@H]2CC[C@]3(C)[C@H]4CC=C5[C@@H]6CC(C)(C)CC[C@]6(C(=O)O[C@@H]6O[C@H](CO)[C@@H](O)[C@H](O)[C@H]6O)CC[C@@]5(C)[C@]4(C)CC[C@H]3C2(C)C)[C@H](O[C@H]2OC[C@@H](O)[C@H](O)[C@H]2O)[C@@H](O)[C@@H]1O [PSEUDOGINSENOSIDE RT1 METHYL ESTER] What is its recorded IC50?
# output > 100 µM

====

Tested on: HCT-116
ASSAY_DETAILS: Cytotoxicity against human HCT116 cells by MTT assay
Assay type: functional, cell-based
VALUE_KIND: pIC50
Give bare numbers, as −log10 of the molar value.

O=C1c2c(O)ccc(O)c2C(=O)c2c(NCCNCCO)ccc(NCCNCCO)c21 [MITOXANTRONE]; 5.40

Next item in the queue.
# input Consider the compound shown here: CC1(C)CC[C@]2(C(=O)O[C@@H]3O[C@H](CO)[C@@H](O)[C@H](O)[C@H]3O)CC[C@]3(C)C(=CC[C@@H]4[C@@]5(C)CC[C@H](O[C@@H]6O[C@H](C(=O)O)[C@@H](O)[C@H](O)[C@H]6O)C(C)(C)[C@@H]5CC[C@]43C)[C@@H]2C1 [CHIKUSETSUSAPONIN IVA] What is its recorded pIC50?
# output 4.11

====

Tested on: HCT-116
ASSAY_DETAILS: Cytotoxicity against human HCT116 cells by MTT assay
Format: functional, cell-based
VALUE_KIND: IC50 (µM)
Answers are plain numbers, in µM.

// solved cases for IC50 follow
COC(=O)[C@H]1O[C@@H](O[C@H]2CC[C@]3(C)[C@H]4CC=C5[C@@H]6CC(C)(C)CC[C@]6(C(=O)O)CC[C@@]5(C)[C@]4(C)CC[C@H]3C2(C)C)[C@H](O[C@H]2OC[C@@H](O)[C@H](O)[C@H]2O)[C@@H](O)[C@@H]1O [PESUDOGINSENOSIDE RP1 METHYL ESTER]; 6.5
CC1(C)CC[C@]2(C(=O)O[C@@H]3O[C@H](CO)[C@@H](O)[C@H](O)[C@H]3O)CC[C@]3(C)C(=CC[C@@H]4[C@@]5(C)CC[C@H](O[C@@H]6O[C@H](CO)[C@@H](O)[C@H](O)[C@H]6O[C@H]6OC[C@@H](O)[C@H](O)[C@H]6O)C(C)(C)[C@@H]5CC[C@]43C)[C@@H]2C1; 75.9
CC1(C)CC[C@]2(C(=O)O)CC[C@]3(C)C(=CC[C@@H]4[C@@]5(C)CC[C@H](O)C(C)(C)[C@@H]5CC[C@]43C)[C@@H]2C1 [OLEANOLIC_ACID]; 4.8

Next item in the queue.
# input Identify the measured IC50 of COC(=O)[C@H]1O[C@@H](O[C@H]2CC[C@]3(C)[C@H]4CC=C5[C@@H]6CC(C)(C)CC[C@]6(C(=O)O)CC[C@@]5(C)[C@]4(C)CC[C@H]3C2(C)C)[C@H](O)[C@@H](O[C@@H]2O[C@H](CO)[C@@H](O)[C@H](O)[C@H]2O)[C@@H]1O [SPINASAPONIN A METHYL ESTER] for HCT-116.
# output 0.63
